measurement target: T1, human MSLN-R3-his protein (human, UniProt Q13421 487-598)
T1 construct: Self-made in HEK293E cells; also called human MSLN-R3 protein; hMSLN-R3-his; not shown: His tag
T1 sequence (Q13421 495-606): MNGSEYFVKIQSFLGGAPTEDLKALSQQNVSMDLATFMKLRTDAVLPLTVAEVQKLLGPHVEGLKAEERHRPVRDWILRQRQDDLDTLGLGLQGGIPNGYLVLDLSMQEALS
test method notes: ELISA on coated antigen, antibody 0.001 nM
Task for the reader: assign each of the following binders its reported OD450.

Examples from the recorded data:
S009-F2.16.10 (antibody, human IgG1, kappa, V domains shown, Human-murine chimeric antibody: murine VH/VL on human IgG1 heavy and kappa light constant regions) VH: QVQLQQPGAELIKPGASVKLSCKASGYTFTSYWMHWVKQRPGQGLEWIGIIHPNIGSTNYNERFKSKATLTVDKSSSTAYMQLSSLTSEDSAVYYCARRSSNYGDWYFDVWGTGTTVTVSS VL: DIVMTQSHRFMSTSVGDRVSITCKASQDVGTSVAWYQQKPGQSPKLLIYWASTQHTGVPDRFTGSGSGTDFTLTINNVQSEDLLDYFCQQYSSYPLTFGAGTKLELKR | 0.05 OD450
S009-F2.47.1 (antibody, human IgG1, kappa, V domains shown, Human-murine chimeric antibody: murine VH/VL on human IgG1 heavy and kappa light constant regions) VH: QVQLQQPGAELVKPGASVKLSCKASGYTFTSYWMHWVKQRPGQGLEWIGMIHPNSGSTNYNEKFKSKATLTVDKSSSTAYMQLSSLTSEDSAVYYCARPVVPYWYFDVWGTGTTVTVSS VL: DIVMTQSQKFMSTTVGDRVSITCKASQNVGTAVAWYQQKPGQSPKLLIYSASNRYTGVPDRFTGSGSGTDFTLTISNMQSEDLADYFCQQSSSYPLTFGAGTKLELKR | 0.05 OD450
S009-F2-56.12 (antibody, human IgG1, kappa, V domains shown, Human-murine chimeric antibody: murine VH/VL on human IgG1 heavy and kappa light constant regions) VH: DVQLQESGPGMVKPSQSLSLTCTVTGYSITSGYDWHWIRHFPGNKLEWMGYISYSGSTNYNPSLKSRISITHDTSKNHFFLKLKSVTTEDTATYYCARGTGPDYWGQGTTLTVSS VL: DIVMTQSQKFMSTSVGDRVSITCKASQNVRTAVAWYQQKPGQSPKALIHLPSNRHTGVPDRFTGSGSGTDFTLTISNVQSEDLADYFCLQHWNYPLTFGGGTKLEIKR | 0.05 OD450
S009-F2.13.3 (antibody, human IgG1, kappa, V domains shown, Human-murine chimeric antibody: murine VH/VL on human IgG1 heavy and kappa light constant regions) VH: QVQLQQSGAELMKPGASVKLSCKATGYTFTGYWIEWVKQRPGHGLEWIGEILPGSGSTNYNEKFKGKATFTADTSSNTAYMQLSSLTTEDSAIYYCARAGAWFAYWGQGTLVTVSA VL: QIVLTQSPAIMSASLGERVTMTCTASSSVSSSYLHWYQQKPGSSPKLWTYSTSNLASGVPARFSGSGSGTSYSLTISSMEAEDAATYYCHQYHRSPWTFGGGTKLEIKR | 0.06 OD450

Item S009-F2.39.3 (antibody, human IgG1, kappa, V domains shown, Human-murine chimeric antibody: murine VH/VL on human IgG1 heavy and kappa light constant regions) VH: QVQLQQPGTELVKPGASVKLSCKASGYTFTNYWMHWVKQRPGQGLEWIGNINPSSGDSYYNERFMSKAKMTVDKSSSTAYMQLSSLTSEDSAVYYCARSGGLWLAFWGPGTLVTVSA VL: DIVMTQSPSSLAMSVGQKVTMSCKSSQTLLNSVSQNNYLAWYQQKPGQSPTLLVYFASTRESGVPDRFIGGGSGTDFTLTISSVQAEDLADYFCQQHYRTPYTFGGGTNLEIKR has what recorded OD450?
0.05 OD450
